System: Mus musculus
Experiment: Increase of bleeding time in mouse at 30 uM/kg, po administered 60 mins prior to tail incision
Type: ADME, organism-based
Conditions: in vivo, 1 h
recorded.endpoint: Activity (%)
Write the number in % without appending the unit.

structure.notation | Activity / %
Cc1cc(=O)oc2c1ccc1c(OCC(=O)Nc3ccc(S(N)(=O)=O)cc3)cccc12 | 16.5

*Q* Query: Activity; subject: COc1ccc(CNC(=O)COc2cccc3c2ccc2c(C)cc(=O)oc23)cc1
*A* 8.2

*Q* Proceed to CCCNC(=O)COc1cccc2c1ccc1c(C)cc(=O)oc12
*A* 91.5

*Q* Proceed to Cc1ccc(CNC(=O)COc2cccc3c2ccc2c(C)cc(=O)oc23)cc1C
*A* 58.5

*Q* Proceed to Cc1cc(=O)oc2c1ccc1c(OCC(=O)NC(C)C)cccc12
*A* 66.5

----------
In this section we review reported Activity values for a set of compounds.
Test system: Mus musculus
Assay: Increase of bleeding time in mouse at 30 uM/kg, po administered 60 mins prior to tail incision
Type: ADME, organism-based
Conditions: in vivo, 1 h
Write the number in % without appending the unit.

Example cases with answers are listed next.
structure.notation | recorded.endpoint | assay.result
Cc1cc(=O)oc2c1ccc1c(OCC(=O)Nc3cccc(C(=O)O)c3)cccc12 | Activity | 8.5
Cc1cc(=O)oc2c1ccc1c(OCC(=O)N3CCCCC3)cccc12 | Activity | 58.5

*Q* Recall the recorded Activity for Cc1cc(=O)oc2c1ccc1c(OCC(=O)NC(C)(C)C)cccc12 with Mus musculus and state it.
*A* 96.5

*Q* Proceed to Cc1cc(=O)oc2c1ccc1c(OCC(=O)NC3CCCCC3)cccc12
*A* 0

*Q* Proceed to Cc1cc(=O)oc2c1ccc1c(OCC(=O)NCc3ccccc3)cccc12
*A* 8.5

*Q* Proceed to Cc1cc(=O)oc2c1ccc1c(OCC(=O)N3CCN(C)CC3)cccc12
*A* 8.5

*Q* Proceed to COc1cc(NC(=O)COc2cccc3c2ccc2c(C)cc(=O)oc23)cc(OC)c1OC
*A* 41.7

*Q* Proceed to Cc1cc(=O)oc2c1ccc1c(OCC(=O)N3CCOCC3)cccc12
*A* 66.8

*Q* Proceed to Cc1cc(=O)oc2c1ccc1c(OCC(=O)NCCCO)cccc12
*A* 112.5

Ref: ChEMBL document CHEMBL2016548
